Tested on: HCT-116
protocol-notes: Antiproliferative activity against human HCT116 cells after 48 hrs by MTT assay
Format: functional, cell-based
protocol-conditions: HCT-116, 48 h
pIC50: −log10 of the molar value.
Rule: condition met for pIC50 not less than 5, condition not met for anything less.

molecule: COc1c(-c2ccc(-c3ccccc3)cc2)oc2c(CNCCCCN)cccc2c1=O
system-name: HCT-116
label-class: condition not met

molecule: NCCCNCc1c(-c2ccc(-c3ccccc3)cc2)oc2ccccc2c1=O
system-name: HCT-116
label-class: condition not met

molecule: COc1ccc2cc(-c3oc4c(CNCCCCNCCCCN)cccc4c(=O)c3OC)ccc2c1Br
system-name: HCT-116
label-class: condition not met

molecule: O=C1c2c(O)ccc(O)c2C(=O)c2c(NCCNCCO)ccc(NCCNCCO)c21 [MITOXANTRONE]
system-name: HCT-116
label-class: condition met

molecule: COc1ccc2cc(-c3oc4c(CNCCCCN)cccc4c(=O)c3OC)ccc2c1Br.Cl.Cl
system-name: HCT-116
label-class: condition not met

molecule: COc1c(-c2ccc(-c3ccccc3)cc2)oc2c(CNCCN)cccc2c1=O
system-name: HCT-116
label-class: condition not met

molecule: COc1c(-c2ccc(-c3ccccc3)cc2)oc2c(CNCCCNCCCCN)cccc2c1=O
system-name: HCT-116
label-class: condition not met

molecule: COc1c(-c2ccc(-c3ccccc3)cc2)oc2c(CNCCCN)cccc2c1=O.Cl.Cl
system-name: HCT-116
label-class: condition met

molecule: COc1c(-c2ccc(-c3ccccc3)cc2)oc2c(CNCCCCNCCCCN)cccc2c1=O
system-name: HCT-116
label-class: condition not met
